Molecular target: Recombinant STAT3 protein (STAT3(G127-I722)) (Homo sapiens, UniProt P40763)
Construct: Recombinant STAT3 protein (STAT3(G127-I722))
Sequence (P40763 127-722): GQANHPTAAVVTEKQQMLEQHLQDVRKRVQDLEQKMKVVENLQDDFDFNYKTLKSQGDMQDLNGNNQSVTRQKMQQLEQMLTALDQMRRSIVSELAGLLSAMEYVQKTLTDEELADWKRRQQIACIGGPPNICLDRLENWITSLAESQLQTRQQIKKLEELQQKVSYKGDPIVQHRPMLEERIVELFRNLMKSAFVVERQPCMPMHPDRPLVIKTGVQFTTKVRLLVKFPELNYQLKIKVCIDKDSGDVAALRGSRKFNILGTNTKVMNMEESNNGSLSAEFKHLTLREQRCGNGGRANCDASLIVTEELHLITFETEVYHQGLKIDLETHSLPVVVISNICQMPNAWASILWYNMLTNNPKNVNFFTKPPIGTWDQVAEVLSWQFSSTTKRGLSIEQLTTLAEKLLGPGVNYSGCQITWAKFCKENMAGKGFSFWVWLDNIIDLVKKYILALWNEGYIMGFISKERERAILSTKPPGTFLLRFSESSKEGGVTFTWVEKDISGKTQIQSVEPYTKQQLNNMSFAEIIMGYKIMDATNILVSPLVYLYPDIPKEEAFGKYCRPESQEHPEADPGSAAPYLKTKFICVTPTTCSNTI
Experiment: STAT3 Fluorescence Polarization (FP) Assay
Settings: STAT3(G127-I722) 25 nM, probe 5-FAM-GpYLPQTV-NH2 2 nM, 45-minute incubation
Protocol: STAT3 Fluorescence Polarization (FP) Assay An FP assay was developed to determine IC50 values for test substances. […] Reaction components were mixed, and FP was measured after 45-minute incubation at room temperature using a Tecan Spark multimode plate reader. FP signal (mP) was plotted against the log concentration of the test substances and IC50 values were calculated by nonlinear regression analysis using GraphPad Prism software. […]
pIC50: −log10 of the molar value.
Entries and their pIC50

A selection of reference data follows.
| COMPOUND | pIC50 |
| --- | --- |
| CC(=O)N1CC[C@H]2CC[C@@H](C(=O)N3CCC4(C3)C(=O)Nc3ccccc34)N2C(=O)[C@@H](NC(=O)c2cc3cc(C(F)(F)P(=O)(O)O)ccc3s2)C1 (stereo partly shown) | 6.00 to 7.00 |
| COc1cc(CN2CC[C@H]3CC[C@@H](C(=O)N4CC(c5cccnc5)C4)N3C(=O)[C@@H](NC(=O)c3cc4cc(C(F)(F)P(=O)(O)O)ccc4s3)C2)ccc1-n1cnc(C)c1 | ≥ 7.00 |

[ask] Find the recorded pIC50 belonging to CC(=O)N1CC[C@H]2CC[C@@H](C(=O)N3C[C@H](c4cc[nH]c(=O)c4)[C@@H](C#N)C3)N2C(=O)[C@@H](NC(=O)c2ccc3ccc(C(F)(F)P(=O)(O)O)cc3c2)C1 (single isomer, unassigned) and report it.
[reply] 5.00 to 6.00

[ask] Find the recorded pIC50 belonging to CC(=O)N1CC[C@H]2CC[C@@H](C(=O)N(C)C3CCN(S(C)(=O)=O)CC3)N2C(=O)[C@@H](NC(=O)c2cc3cc(C(F)(F)P(=O)(O)O)ccc3s2)C1 and report it.
[reply] 5.00 to 6.00

[ask] Find the recorded pIC50 belonging to O=C(N[C@H]1CN(C(=O)c2noc3ccc(Cl)cc23)CC[C@H]2CC[C@@H](C(=O)N3CCOCC3)N2C1=O)c1ccc2ccc(C(F)P(=O)(O)O)cc2c1 (stereo partly shown) and report it.
[reply] < 5.00

[ask] Find the recorded pIC50 belonging to CC(=O)N1CC[C@H]2CC[C@@H](C(=O)N(C)c3ccc4nnccc4c3)N2C(=O)[C@@H](NC(=O)c2cc3cc(C(F)(F)P(=O)(O)O)ccc3s2)C1 and report it.
[reply] 6.00 to 7.00

[ask] Find the recorded pIC50 belonging to CC(=O)N1CC[C@H]2CC[C@@H](C(=O)Nc3ccc(-c4ccccc4)cc3)N2C(=O)[C@@H](NC(=O)/C=C/c2ccc(C(F)(F)P(=O)(O)O)cc2)C1 and report it.
[reply] < 5.00

[ask] Find the recorded pIC50 belonging to CC(=O)N1CC[C@H]2CC[C@@H](C(=O)N(C)c3ccccc3)N2C(=O)[C@@H](NC(=O)c2cc3cc(C(C)(C)P(=O)(O)O)ccc3s2)C1 and report it.
[reply] < 5.00

[ask] Find the recorded pIC50 belonging to CC(=O)N1CC[C@H]2CC[C@@H](C(=O)N3CCCC[C@H]3Cc3ccccc3)N2C(=O)[C@@H](NC(=O)c2cc3cc(C(F)(F)P(=O)(O)O)ccc3[nH]2)C1 and report it.
[reply] 5.00 to 6.00

[ask] Find the recorded pIC50 belonging to O=C(N[C@H]1CN(C(=O)CCc2ccccc2)CC[C@H]2CC[C@@H](C(=O)Nc3ccc(-c4ccccc4)cc3)N2C1=O)c1cc2cc(C(F)(F)P(=O)(O)O)ccc2[nH]1 and report it.
[reply] 6.00 to 7.00

* * *

Entries and their IC50
Molecular target: Recombinant STAT3 protein (STAT3(G127-I722)) (Homo sapiens, UniProt P40763)
Construct: Recombinant STAT3 protein (STAT3(G127-I722))
Assay: STAT3 Fluorescence Polarization (FP) Assay
Conditions: STAT3(G127-I722) 25 nM, probe 5-FAM-GpYLPQTV-NH2 2 nM, 45-minute incubation

A selection of reference data follows.
| MOLECULE | RESULT_VALUE |
| --- | --- |
| CC(C)C(=O)N1CC[C@H]2CC[C@@H](C(=O)N(C)c3ccccc3)N2C(=O)[C@@H](NC(=O)c2cc3cc(C(F)(F)P(=O)(O)O)ccc3[nH]2)C1 | 1 to 10 µM |
| CC(=O)N1CC[C@H]2CC[C@@H](C(=O)N[C@H]3CCC[C@H]3N)N2C(=O)[C@@H](NC(=O)c2cc3cc(C(F)(F)P(=O)(O)O)ccc3[nH]2)C1 | 1 to 10 µM |

[ask] Find the recorded IC50 belonging to O=C(N[C@H]1CN(C(=O)NCc2ccccc2)CC[C@H]2CC[C@@H](C(=O)Nc3ccc(-c4ccccc4)cc3)N2C1=O)c1cc2cc(C(F)(F)P(=O)(O)O)ccc2s1 and report it.
[reply] 0.1 to 1 µM

* * *

Biological target: Recombinant STAT3 protein (STAT3(G127-I722)) (Homo sapiens)
Construct: Recombinant STAT3 protein (STAT3(G127-I722))
Assay: STAT3 Fluorescence Polarization (FP) Assay
Settings: STAT3(G127-I722) 25 nM, probe 5-FAM-GpYLPQTV-NH2 2 nM, 45-minute incubation
Entries and their IC50

| COMPOUND | IC50 |
| --- | --- |
| COc1ccc2c(C(=O)N3CC[C@H]4CC[C@@H](C(=O)N5CCOCC5)N4C(=O)[C@@H](NC(=O)c4ccc5ccc(C(F)P(=O)(O)O)cc5c4)C3)noc2c1 (some centres unmarked) | > 10000 nM |
| COc1ccc(C2CN(C(=O)[C@@H]3CC[C@@H]4CCN(C(C)=O)C[C@H](NC(=O)c5cc6cc(C(F)(F)P(=O)(O)O)ccc6s5)C(=O)N43)C[C@@H]2C#N)cn1 (relative stereo) | 100 to 1000 nM |
| CC(=O)N1CC[C@H]2CC[C@@H](C(=O)N(C)c3ccccc3)N2C(=O)[C@@H](NC(=O)c2ccc3ccc(C(F)(F)P(=O)(O)O)cc3c2)C1 | > 10000 nM |
| CC(=O)N1CC[C@H]2CC[C@@H](C(=O)Nc3cc(C)c4[nH]ncc4c3)N2C(=O)[C@@H](NC(=O)c2cc3cc(C(F)(F)P(=O)(O)O)ccc3s2)C1 | 1000 to 10000 nM |
| CC(=O)N1CC[C@H]2CC[C@@H](C(=O)N3C[C@@H](C#N)[C@@H]3c3ccccc3)N2C(=O)[C@@H](NC(=O)c2cc3cc(C(F)(F)P(=O)(O)O)ccc3s2)C1 (relative stereo) | 100 to 1000 nM |

[ask] What value of IC50 on Recombinant STAT3 protein (STAT3(G127-I722)) (Homo sapiens) does CC(=O)N1CC[C@H]2CC[C@@H](C(=O)N(C)c3ccc4nnccc4c3)N2C(=O)[C@@H](NC(=O)c2ccc3ccc(C(F)(F)P(=O)(O)O)cc3n2)C1 have?
[reply] > 10000 nM

[ask] What value of IC50 on Recombinant STAT3 protein (STAT3(G127-I722)) (Homo sapiens) does CC(=O)N1CC[C@H]2CC[C@@H](C(=O)N(C)Cc3ccccc3)N2C(=O)[C@@H](NC(=O)c2cc3cc(C(F)(F)P(=O)(O)O)ccc3[nH]2)C1 have?
[reply] 1000 to 10000 nM

[ask] What value of IC50 on Recombinant STAT3 protein (STAT3(G127-I722)) (Homo sapiens) does N#C[C@@H]1CN(C(=O)[C@@H]2CC[C@@H]3CCN(CC(F)F)C[C@H](NC(=O)c4cc5cc(C(F)P(=O)(O)O)ccc5s4)C(=O)N32)C[C@H]1c1ccccc1 (some centres unmarked) have?
[reply] 1000 to 10000 nM

[ask] What value of IC50 on Recombinant STAT3 protein (STAT3(G127-I722)) (Homo sapiens) does C[C@H](Cc1ccccc1)C(=O)N1CC[C@H]2CC[C@@H](C(=O)N3CCCC3)N2C(=O)[C@@H](NC(=O)c2cc3cc(C(F)(F)P(=O)(O)O)ccc3s2)C1 have?
[reply] 100 to 1000 nM

* * *

Target: Recombinant STAT3 protein (STAT3(G127-I722)) (Homo sapiens)
Construct: Recombinant STAT3 protein (STAT3(G127-I722))
Assay: STAT3 Fluorescence Polarization (FP) Assay
Settings: STAT3(G127-I722) 25 nM, probe 5-FAM-GpYLPQTV-NH2 2 nM, 45-minute incubation
Entries and their IC50

[ask] Find the recorded IC50 belonging to CC(=O)N1CC[C@H]2CC[C@@H](C(=O)Nc3ccc(-c4ccccc4)cc3[N+](=O)[O-])N2C(=O)[C@@H](NC(=O)c2cc3cc(C(F)(F)P(=O)(O)O)ccc3s2)C1 and report it.
[reply] 0.1 to 1 µM

[ask] Find the recorded IC50 belonging to CC(=O)N1CC[C@H]2CC[C@@H](C(=O)N3CC(c4cc[nH]c(=O)c4)[C@@H](C#N)C3)N2C(=O)[C@@H](NC(=O)c2cc3cc(C(F)(F)P(=O)(O)O)ccc3s2)C1 (relative stereo) and report it.
[reply] 0.1 to 1 µM

[ask] Find the recorded IC50 belonging to CC(=O)N1CC[C@H]2CC[C@@H](C(=O)N3CCC[C@H]3c3ccccc3)N2C(=O)[C@@H](NC(=O)c2cc3cc(C(F)(F)P(=O)(O)O)ccc3[nH]2)C1 and report it.
[reply] 1 to 10 µM
